Values were extracted from patent US8138168B1.

# target.desc: Recombinant human renin (Homo sapiens)
# Construct: isolate the active form (residues 67-406); made in house; host or cells: FreeStyle 293-F cells (transient expression of pcDNA3.1(+)/hREN)
# Sequence (P00797 67-406): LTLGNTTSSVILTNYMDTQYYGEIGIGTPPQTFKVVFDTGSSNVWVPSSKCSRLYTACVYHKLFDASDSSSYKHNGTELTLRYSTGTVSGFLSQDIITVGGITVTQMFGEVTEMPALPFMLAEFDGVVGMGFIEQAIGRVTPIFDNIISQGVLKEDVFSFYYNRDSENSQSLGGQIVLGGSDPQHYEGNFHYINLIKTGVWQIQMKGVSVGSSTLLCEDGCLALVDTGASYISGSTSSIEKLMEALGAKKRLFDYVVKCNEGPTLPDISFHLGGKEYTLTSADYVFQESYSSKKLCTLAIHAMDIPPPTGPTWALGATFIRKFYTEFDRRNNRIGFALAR
# test.protocol: In vitro enzymatic activity assay of renin inhibitors (fluorogenic peptide substrate)
# Assay type: biochemical
# condition.set: read-out: IC50 of Exemplified Compounds Against Renin
Reported IC50 values for a set of compounds

Input COCCCn1c([C@@H]2CCCN(C(=O)C[C@H](N)CNC(=O)c3ccc4c(c3)CCO4)C2)nc2ccccc21 , output reported IC50.
0.1 to 1 µM

Give IC50 for the following compound: COCCCn1c([C@@H]2CCCN(C(=O)C[C@H](N)CNC(=O)Nc3ccc4c(c3)OCCO4)C2)nc2ccccc21
< 0.1 µM

Name the recorded IC50 of the compound listed here: COCCCn1c([C@@H]2CCCN(C(=O)C[C@H](N)Cc3ccc(-c4ccc5c(c4)CC(=O)N5)cc3)C2)nc2c(F)cccc21
< 0.1 µM

Dear colleague, please send me the reported IC50 for COCCCn1c([C@@H]2CCCN(C(=O)C[C@H](N)Cc3ccc(-n4ccnc4)cc3)C2)nc2ccccc21 when you can.
< 0.1 µM

Hello, please tell me recorded IC50 for this one: COCCCn1c([C@@H]2CCCN(C(=O)[C@@H]3CN(S(=O)(=O)c4ccc([N+](=O)[O-])cc4OC)C[C@H]3N)C2)nc2ccccc21
> 1 µM

Output measured IC50 for this item: CC(C)(C)[C@H](N)C(=O)N1CCCC(c2nc3ccccc3[nH]2)C1 (some centres unmarked)
> 1 µM

Input COCCCn1c([C@@H]2CCCN(C(=O)C[C@H](N)Cc3ccc(-c4ccncc4)cc3)C2)nc2ccccc21 , output reported IC50.
< 0.1 µM

Dear colleague, please send me the reported IC50 for CC(=O)NCCn1c([C@@H]2CCCN(C(=O)C[C@H](N)Cc3ccc(-c4ccc5c(c4)CC(=O)N5)cc3)C2)nc2ccccc21 when you can.
< 0.1 µM

Let me know recorded IC50 for COCCCn1c([C@@H]2CCCN(C(=O)C[C@H](N)Cc3ccc(-c4ccc(NC(=O)N(C)C)cc4)cc3)C2)nc2ccccc21 , thanks.
< 0.1 µM

Specify reported IC50 for the compound shown: COCCCn1c([C@@H]2CCCN(C(=O)C[C@H](N)CNC(=O)Nc3cc(C(C)(C)C)ccc3OC)C2)nc2ccccc21
0.1 to 1 µM

Respond only with IC50 recorded for N[C@H](C(=O)N1CCCC(c2nc3ccccc3[nH]2)C1)C1CCCCC1 (some centres unmarked)
> 1 µM
